Tested on: HCT-116 colon
method.notes: NCI-60 one-dose screen, 48 h (100 = growth as untreated, 0 = no growth, -100 = all killed)
conditions.used: 10 µM unless noted
About 83,000 compounds went through this panel and 20% of them were active in at least one assay; those are over-represented in the sample as a whole.
Rule: measured growth below 60% gets Fulfilled; anything equal to or greater than 60% gets Not fulfilled.

INSERT INTO results (compound, label_value) VALUES
  ('CCOC(=O)c1c(Nc2ccccc2)nn2c(-c3ccccc3)ccnc12', 'Not fulfilled'),
  ('CC(C)(C)c1ccc(C(=O)Nc2sc3c(c2C(N)=O)CCC(O)C3)cc1 (stereo not drawn)', 'Fulfilled'),
  ('COC[C@]12CCC(C)(C)C[C@H]1C1=CC[C@@H]3[C@@]4(C)CCCNC(C)(C)[C@@H]4CC[C@@]3(C)[C@]1(C)CC2', 'Fulfilled'),
  ('COc1cccc2c1CN(C(=O)c1ccc(O)c(C(=O)N3Cc4ccc(OCCC[P+](c5ccccc5)(c5ccccc5)c5ccccc5)cc4C3)c1)C2', 'Not fulfilled'),
  ('NC(N)=Nc1ccc(Oc2cccc(NC(N)=Nc3ccc(Cl)c(C(F)(F)F)c3)c2)cn1', 'Fulfilled'),
  ('CCOC(=O)c1c(Nc2ccccc2)nn2c(-c3ccc(OC)cc3)ccnc12', 'Not fulfilled');

## Task In plain terms, does O=C(NNc1nc2cc(F)c(F)cc2n2c(CN3CC4CNCC4C3)ccc12)c1ncccn1 (stereo not drawn) come in under 60% for growth?
## Result Fulfilled
